Target: beta amyloid (1-42) (Homo sapiens)
Sequence (P05067 672-713 limits assumed): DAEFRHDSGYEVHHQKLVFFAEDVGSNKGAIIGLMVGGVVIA
Assay: Inhibitory activity against beta amyloid fibril formation (ThT fluorescence)
Type: biochemical
Details: compound 10 μM, beta amyloid (1-42) 25 μM, 1 hr room temperature, beta amyloid alone (control) = 100
TRUE if remaining activity at 10 µM is below 30%. FALSE if not; exact matches included in FALSE.

Find out if reported remaining activity at 10 µM for COc1nc(/C=C/c2cccc(O)c2)cc(/C=C/c2cccc(O)c2)n1 is less than 30%
FALSE

Find out if reported remaining activity at 10 µM for CN(C)c1cc(/C=C/c2cccc(/C=C/c3ccc(O)c(N(C)C)c3)c2)ccc1O is less than 30%
FALSE

Find out if reported remaining activity at 10 µM for COc1ccc(/C=C/c2cc(O)cc(/C=C/c3ccc(OC)c(O)c3)c2)cc1O is less than 30%
TRUE

Find out if reported remaining activity at 10 µM for COc1nc(/C=C/c2ccc(O)c(OC)c2)cc(/C=C/c2ccc(O)c(OC)c2)n1 is less than 30%
FALSE

Find out if reported remaining activity at 10 µM for Oc1ccc(/C=C/c2cc(/C=C/c3ccc(O)cc3)ncn2)cc1 is less than 30%
FALSE

Find out if reported remaining activity at 10 µM for COc1cc(/C=C/c2cc(/C=C/c3ccc(O)c(OC)c3)ncn2)ccc1O is less than 30%
TRUE

Find out if reported remaining activity at 10 µM for CSc1nc(/C=C/c2cccc(O)c2)cc(/C=C/c2cccc(O)c2)n1 is less than 30%
FALSE

Find out if reported remaining activity at 10 µM for COc1ccc(/C=C/c2cc(/C=C/c3ccc(OC)c(O)c3)nc(SC)n2)cc1O is less than 30%
TRUE

Find out if reported remaining activity at 10 µM for CSc1nc(/C=C/c2ccc(N(C)C)c(O)c2)cc(/C=C/c2ccc(N(C)C)c(O)c2)n1 is less than 30%
TRUE

Find out if reported remaining activity at 10 µM for Oc1ccc(/C=C/c2cc(O)cc(/C=C/c3ccc(O)cc3)c2)cc1 [Ex. 22, (E,E)-3,5-bis(4′-hydroxystyryl)phenol] is less than 30%
TRUE

Find out if reported remaining activity at 10 µM for COc1ccc(/C=C/c2cccc(/C=C/c3ccc(OC)c(O)c3)c2)cc1O is less than 30%
FALSE

Find out if reported remaining activity at 10 µM for COc1ccc(/C=C/c2cc(/C=C/c3ccc(OC)c(O)c3)ncn2)cc1O is less than 30%
TRUE

Find out if reported remaining activity at 10 µM for COc1cc(/C=C/c2cc(O)cc(/C=C/c3ccc(O)c(OC)c3)c2)ccc1O is less than 30%
TRUE

Find out if reported remaining activity at 10 µM for CN(C)c1cc(/C=C/c2cc(/C=C/c3ccc(O)c(N(C)C)c3)ncn2)ccc1O is less than 30%
TRUE

Find out if reported remaining activity at 10 µM for CN(C)c1ccc(/C=C/c2cc(/C=C/c3ccc(N(C)C)c(O)c3)ncn2)cc1O is less than 30%
TRUE

Find out if reported remaining activity at 10 µM for CN(C)c1cc(/C=C/c2cc(O)cc(/C=C/c3ccc(O)c(N(C)C)c3)c2)ccc1O is less than 30%
TRUE

Find out if reported remaining activity at 10 µM for COc1nc(/C=C/c2ccc(OC)c(O)c2)cc(/C=C/c2ccc(OC)c(O)c2)n1 is less than 30%
FALSE

Find out if reported remaining activity at 10 µM for CSc1nc(/C=C/c2ccc(O)cc2)cc(/C=C/c2ccc(O)cc2)n1 is less than 30%
FALSE

Find out if reported remaining activity at 10 µM for COc1cc(/C=C/c2cc(/C=C/c3ccc(O)c(OC)c3)nc(SC)n2)ccc1O is less than 30%
FALSE

Find out if reported remaining activity at 10 µM for CN(C)c1ccc(/C=C/c2cc(O)cc(/C=C/c3ccc(N(C)C)c(O)c3)c2)cc1O is less than 30%
TRUE

Find out if reported remaining activity at 10 µM for Oc1cccc(/C=C/c2cc(O)cc(/C=C/c3cccc(O)c3)c2)c1 [Ex. 23, (E,E)-3,5-bis(3′-hydroxystyryl)phenol] is less than 30%
FALSE

Find out if reported remaining activity at 10 µM for COc1nc(/C=C/c2ccc(O)c(N(C)C)c2)cc(/C=C/c2ccc(O)c(N(C)C)c2)n1 is less than 30%
TRUE

Find out if reported remaining activity at 10 µM for COc1nc(/C=C/c2ccc(O)cc2)cc(/C=C/c2ccc(O)cc2)n1 is less than 30%
FALSE

Find out if reported remaining activity at 10 µM for COc1nc(/C=C/c2ccc(N(C)C)c(O)c2)cc(/C=C/c2ccc(N(C)C)c(O)c2)n1 is less than 30%
TRUE

Find out if reported remaining activity at 10 µM for CN(C)c1ccc(/C=C/c2cccc(/C=C/c3ccc(N(C)C)c(O)c3)c2)cc1O is less than 30%
FALSE

Find out if reported remaining activity at 10 µM for Oc1cccc(/C=C/c2cc(/C=C/c3cccc(O)c3)ncn2)c1 is less than 30%
FALSE

Find out if reported remaining activity at 10 µM for CSc1nc(/C=C/c2ccc(O)c(N(C)C)c2)cc(/C=C/c2ccc(O)c(N(C)C)c2)n1 is less than 30%
TRUE
